- target under test: C-Rel subunit;p52 subunit (Homo sapiens;Homo sapiens, UniProt Q04864;Q00653 1-285;4-332)
- Sequence 1: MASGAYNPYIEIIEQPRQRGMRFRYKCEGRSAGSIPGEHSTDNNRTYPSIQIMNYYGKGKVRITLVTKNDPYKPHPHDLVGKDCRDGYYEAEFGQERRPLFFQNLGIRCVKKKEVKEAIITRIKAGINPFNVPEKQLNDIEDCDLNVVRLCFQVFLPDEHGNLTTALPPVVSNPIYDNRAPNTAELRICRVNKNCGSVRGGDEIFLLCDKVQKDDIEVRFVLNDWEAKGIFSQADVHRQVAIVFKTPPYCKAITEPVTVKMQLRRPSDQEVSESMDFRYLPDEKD
- Sequence 2: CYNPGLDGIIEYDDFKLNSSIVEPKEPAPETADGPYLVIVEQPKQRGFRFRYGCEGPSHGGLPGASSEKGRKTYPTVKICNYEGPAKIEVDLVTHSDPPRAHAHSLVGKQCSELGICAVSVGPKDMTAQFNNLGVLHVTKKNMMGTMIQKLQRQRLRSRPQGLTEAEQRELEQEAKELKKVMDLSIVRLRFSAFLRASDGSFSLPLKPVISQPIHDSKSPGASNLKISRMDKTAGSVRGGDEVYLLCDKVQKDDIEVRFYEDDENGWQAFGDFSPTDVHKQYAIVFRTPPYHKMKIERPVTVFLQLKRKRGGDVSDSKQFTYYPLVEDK
- experimental details: protein binding microarray; high values mean tight binding
- study conditions: dsDNA, one strand shown
param class (str): category from binding signal; see ranges low-valued (below -0.1 z-score), mid-valued (-0.1 z-score to below 0.8 z-score), high-valued (0.8 z-score or more)

sequence_record=GGAGTCTCCCC label_value=high-valued
sequence_record=CGATGACCCCT label_value=low-valued
sequence_record=AGGAATATCCC label_value=high-valued
sequence_record=AAAAATTCCCC label_value=high-valued
sequence_record=GAATATCCCCC label_value=high-valued
sequence_record=CGAAGGACCCT label_value=low-valued
sequence_record=GGAATCGTCCC label_value=mid-valued
sequence_record=GAAAAATTCCT label_value=mid-valued
sequence_record=AAGATTCTCCT label_value=low-valued

###

- target under test: RELARELA (p65 homodimer) (Homo sapiens, UniProt Q04206 1-307)
- Sequence (Q04206 1-307): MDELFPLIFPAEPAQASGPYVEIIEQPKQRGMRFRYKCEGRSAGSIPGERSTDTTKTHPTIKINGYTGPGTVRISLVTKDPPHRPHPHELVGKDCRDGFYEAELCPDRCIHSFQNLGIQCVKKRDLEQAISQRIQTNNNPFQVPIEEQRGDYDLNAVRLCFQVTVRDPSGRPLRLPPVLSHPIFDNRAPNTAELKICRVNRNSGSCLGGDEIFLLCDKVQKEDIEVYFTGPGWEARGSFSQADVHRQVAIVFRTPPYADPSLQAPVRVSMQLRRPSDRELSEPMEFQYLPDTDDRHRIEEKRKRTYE
- experimental details: protein binding microarray; high values mean tight binding
- study conditions: dsDNA, one strand shown
Consider the cut-off 0.03 z-score. If the recorded binding signal is strictly smaller, the label is t; if not, the label is f.

sequence_record=CAGGGCTCCCT label_value=t
sequence_record=CGGGTCGTCCT label_value=t
sequence_record=GGAAGAACCCC label_value=f
sequence_record=CGAGAATCCCT label_value=t
sequence_record=CAGTTCTTCCC label_value=f
sequence_record=GAAGTGGCCCC label_value=t
sequence_record=GAGTGTGCCCT label_value=t
sequence_record=GAGAAAACCCT label_value=f
sequence_record=GGAAAGTTCCC label_value=f
sequence_record=CAATTCGTCCC label_value=f
sequence_record=CGATGCTCCCC label_value=t
sequence_record=GAAGGAACCCT label_value=t
sequence_record=AGAAGATTCCT label_value=f
sequence_record=GAGGACGTCCC label_value=f
sequence_record=AAAGTGGTCCC label_value=t
sequence_record=AAGTAAGTCCC label_value=f
sequence_record=AGAAAATCCCT label_value=f
sequence_record=CGAAACCCCCT label_value=f
sequence_record=GAAGTAATCCT label_value=t
sequence_record=GAAGGGACCCC label_value=t
sequence_record=CAGAATTCCCC label_value=f
sequence_record=GAAATGACCCT label_value=t
sequence_record=AAGATGGCCCT label_value=t
sequence_record=GAAGTACCCCC label_value=f
sequence_record=AGAAACGTCCT label_value=t
sequence_record=CAGAAGTCCCT label_value=f
sequence_record=AAAGTGCCCCC label_value=f
sequence_record=CGGTTGCTCCT label_value=t
sequence_record=GAGTTGTTCCC label_value=f
sequence_record=AAGAGGCTCCC label_value=t
sequence_record=GAAGAATCCCC label_value=f
sequence_record=CAAAGCCTCCC label_value=t
sequence_record=AAGAACCCCCT label_value=t
sequence_record=CGGGAACTCCT label_value=f
sequence_record=AAATTTCCCCC label_value=f
sequence_record=CAATTATCCCC label_value=f
sequence_record=CAAGTATTCCT label_value=t
sequence_record=AAGGGGCTCCT label_value=t
sequence_record=CAAATTCCCCC label_value=f
sequence_record=CAGTTTATCCC label_value=f
sequence_record=AAAGGACTCCT label_value=t
